- System: BDF1 mice, P388 leukemia ip, median survival T/C
- testDescription: NCI In Vivo Anticancer Drug Screen. Data for tumor model P388 Leukemia (intraperitoneal) in B6D2F1 (BDF1) mice
- testContext: endpoint: median survival time; dose: 400.0 mg/kg/injection; schedule: Q04DX003 (ip); vehicle: saline with Tween-80; higher = longer survival
- Protocol: The antitumor activity of compounds was measured in mice bearing transplantable tumors. Survival or tumor size were measured and the results are expressed as the measurement made in the treated group (T) divided by the measurement made in the vehicle treated control group (C). The tumor model used in this assay is P388 Leukemia (intraperitoneal) in B6D2F1 (BDF1) mice
Inconclusive results and toxic doses are left out.
Below, each entry is listed alongside its reported T/C.

1. CCCCSCc1nc2nc(Cl)c(Cl)nc2[nH]1    95 % of control
2. N#CC(CC(=O)OCc1ccccc1)NC(=O)OCc1ccccc1 (configuration not stated)    100 % of control
3. COc1ccc(C(=O)C(C)Br)c(OCc2ccccc2)c1OC (configuration not stated)    104 % of control
4. C=C(C)C(N)C(=O)O (configuration not stated)    118 % of control

So for COC(=O)c1ccc2oc(=O)cc(C)c2c1O , the logged T/C turned out to be 95 % of control

// T/C value for Brc1ccc(-c2csc(Nc3nc(-c4ccc(Br)cc4)cs3)n2)cc1 : 95 % of control

Looking up CCCCCCCC(=O)CCCCC , I found its T/C recorded as 91 % of control

The recorded T/C for entry O=c1cc(O)ccn1CCc1cccs1 equals 119 % of control

----------
- Test system: BDF1 mice, P388 leukemia ip, median survival T/C
- testDescription: NCI In Vivo Anticancer Drug Screen. Data for tumor model P388 Leukemia (intraperitoneal) in B6D2F1 (BDF1) mice
- testContext: endpoint: median survival time; dose: 200.0 mg/kg/injection; schedule: Q04DX003 (ip); vehicle: Klucel (hydroxypropylcellulose) (HPC); higher = longer survival
Inconclusive results and toxic doses are left out.
Each entry below lists one item and its recorded T/C value.

1) CC(CC(=O)O)(CC(=O)O)c1ccccc1    95 % of control
2) CCCCN1C(=O)C2CC=C3C=CN4C(C3C2C1=O)C1C(=O)N(CCCC)C(=O)C1C41CC(=O)N(CCCC)C1=O (stereo not drawn)    91 % of control
3) CCCCCCCCCCCCS(=O)(=O)O (tested in a mixture with another compound)    90 % of control
4) CC(C)OC(CCC#N)c1ccccc1 (stereo not drawn)    104 % of control
5) CC1(CBr)Oc2ccccc2O1    95 % of control
6) O=C(/C(=N/Nc1ccccc1)c1ccccc1)c1ccccc1    100 % of control
7) C#C[C@]1(O)CC[C@H]2[C@@H]3CCc4cc(O)ccc4[C@H]3CC[C@@]21C    104 % of control

Let us examine a further case.
Lab entry: BDF1 mice, P388 leukemia ip, median survival T/C assay, compound Cc1nc2[nH][nH]c(=O)c2nc1C , T/C = 92 % of control

----------
- Tested on: BDF1 mice, P388 leukemia ip, median survival T/C
- testDescription: NCI In Vivo Anticancer Drug Screen. Data for tumor model P388 Leukemia (intraperitoneal) in B6D2F1 (BDF1) mice
- testContext: endpoint: median survival time; dose: 100.0 mg/kg/injection; schedule: Q01DX009 (ip); vehicle: Klucel (hydroxypropylcellulose) (HPC); higher = longer survival
Inconclusive results and toxic doses are left out.
In this section, each of the compounds is paired with its reported T/C.

1) O=C1OC(c2ccccc2)=N/C1=C/c1cccs1    96 % of control
2) O=C(O)C1CC=CCCC1 (centres undefined)    95 % of control
3) CC(O)c1ccc(-c2ccccc2)cc1 (centres undefined)    120 % of control
4) CC1(CCBr)NC(=O)NC1=O (centres undefined)    110 % of control
5) CCOC12c3c4cccc3C(=O)c3cccc(c31)C(=O)c1cccc(c12)C4=O    100 % of control
6) CC[C@H](c1ccc(O)cc1)[C@@H](CC)c1ccc(O)cc1    100 % of control

Input C[C@]12CCC(=O)C=C1CC[C@H]1[C@@H]3CC[C@@]4(OCC4=O)[C@@]3(C)C[C@H](O)[C@@]12F . Output T/C: 104 % of control

Entry Cc1c(O)c([N+](=O)[O-])cc2c1OCOC2 , T/C reported as 95 % of control

The measured T/C associated with c1ccc(/C(=N\Nc2nc3ccccc3s2)c2ccncc2)cc1 reads 104 % of control

This collection of values is drawn from PubChem BioAssay AID328.
